System: Streptococcus pneumoniae
TEST_PROTOCOL: Antibacterial activity against Streptococcus pneumoniae SR11031 (PRSP) assessed as inhibition of bacterial growth incubated for 20 hrs by microdilution broth method
Type: functional
CONDITION: SR11031, 20 h
What MIC was measured for each of the following?
Write it as a number; the unit µg/mL goes unstated.

Please give the measured MIC for this molecule: CN[C@H](CC(C)C)C(=O)N[C@H]1C(=O)N[C@@H](CC(N)=O)C(=O)N[C@H]2C(=O)N[C@H]3C(=O)N[C@H](C(=O)N[C@H](C(=O)O)c4cc(O)cc(O)c4-c4cc3ccc4O)[C@H](O)c3ccc(c(Cl)c3)Oc3cc2cc(c3O[C@@H]2O[C@H](CO)[C@@H](O)[C@H](O)[C@H]2O[C@H]2C[C@](C)(N)[C@H](O)[C@H](C)O2)Oc2ccc(cc2Cl)[C@H]1O [VANCOMYCIN]
0.25

Could you tell me which MIC is on file for CCCCCC/C=C\CCCCC[C@@H]1C[C@H]1/C=C/C(O)C(=O)N[C@H](C(=O)N(C)[C@@H](CC(=O)O)C(=O)N(COC(C)(CC)C(NC(=O)C(NC(=O)[C@@H](N)CC(=O)O)C(O)C(O)CNC(=N)N)C(=O)NCC(=O)N[C@@H](CO)C(=O)O)[C@@]12C[C@@H]1CNC2=O)[C@H](O)C(=O)O (some centres undefined) ?
0.25

* * *

Test system: Enterococcus faecalis
TEST_PROTOCOL: Antibacterial activity against Vancomycin-resistant Enterococcus faecalis SR23630 (VanB) assessed as inhibition of bacterial growth incubated for 20 hrs by microdilution broth method
Assay type: functional
CONDITION: SR23630, 20 h
Kindly supply the reported MIC values for the records listed here.
Quick note: give the figure in µg/mL, leave out the unit.

Can you share its MIC? I mean this compound: `CN[C@H](CC(C)C)C(=O)N[C@H]1C(=O)N[C@@H](CC(N)=O)C(=O)N[C@H]2C(=O)N[C@H]3C(=O)N[C@H](C(=O)N[C@H](C(=O)O)c4cc(O)cc(O)c4-c4cc3ccc4O)[C@H](O)c3ccc(c(Cl)c3)Oc3cc2cc(c3O[C@@H]2O[C@H](CO)[C@@H](O)[C@H](O)[C@H]2O[C@H]2C[C@](C)(N)[C@H](O)[C@H](C)O2)Oc2ccc(cc2Cl)[C@H]1O`
32

Tell me the measured MIC of `CCCCCCCCCCNCCN[C@@]1(C)C[C@H](O[C@H]2[C@H](Oc3c4cc5cc3Oc3ccc(cc3Cl)[C@@H](O)[C@@H](NC(=O)[C@@H](CC(C)C)NC)C(=O)N[C@@H](CC(N)=O)C(=O)N[C@H]5C(=O)N[C@H]3C(=O)N[C@H](C(=O)N[C@H](C(=O)O)c5cc(O)c(CNCP(=O)(O)O)c(O)c5-c5cc3ccc5O)[C@H](O)c3ccc(c(Cl)c3)O4)O[C@H](CO)[C@@H](O)[C@@H]2O)O[C@@H](C)[C@H]1O` , please.
1

Name the recorded MIC for CCCCCC/C=C\CCCCC[C@@H]1C[C@H]1/C=C/C(O)C(=O)N[C@H](C(=O)N(C)[C@@H](CC(=O)O)C(=O)N(COC(C)(CC)C(NC(=O)C(NC(=O)[C@@H](N)CC(=O)O)C(O)C(O)CNC(=N)N)C(=O)NCC(=O)N[C@@H](CO)C(=O)O)[C@@]12C[C@@H]1CN(C(=N)N)C2=O)[C@H](O)C(=O)O (some centres undefined) .
0.004
